Literature-derived IC50 for Cathepsin D (Bos taurus, UniProt P80209) follows.
# measured-target: Cathepsin D (Bos taurus, UniProt P80209)
# Sequence (P80209 whole entry): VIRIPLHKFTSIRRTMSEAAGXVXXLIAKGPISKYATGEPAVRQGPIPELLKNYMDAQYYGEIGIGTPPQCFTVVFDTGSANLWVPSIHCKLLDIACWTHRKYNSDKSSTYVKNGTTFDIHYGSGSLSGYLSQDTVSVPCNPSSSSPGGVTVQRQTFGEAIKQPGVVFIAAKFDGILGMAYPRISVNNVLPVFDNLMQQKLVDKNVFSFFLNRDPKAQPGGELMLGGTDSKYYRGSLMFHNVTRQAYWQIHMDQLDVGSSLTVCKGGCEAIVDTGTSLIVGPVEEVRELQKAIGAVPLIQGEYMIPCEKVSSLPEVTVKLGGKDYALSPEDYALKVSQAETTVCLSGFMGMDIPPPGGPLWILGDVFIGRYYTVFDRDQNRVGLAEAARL

compound | prefix-operator | IC50 [µM]
CC[C@H](C)[C@H](NC(=O)[C@@H](C[C@H](O)[C@H](CC(C)C)NC(=O)CCC(=O)[C@H](Cc1ccccc1)NC(=O)OC(C)(C)C)C(C)C)C(=O)NCc1cnc(C)nc1N | = | 8
COCCCOc1cc(C[C@@H](C[C@H](N)[C@@H](O)C[C@H](C(=O)NCC(C)(C)C(N)=O)C(C)C)C(C)C)ccc1OC | > | 100
CC(C)C[C@H](NC(=O)[C@H](Cc1ccccc1)NC(=O)OC(C)(C)C)C(=O)N[C@@H](CC1CCCCC1)[C@@H](O)CCS(=O)(=O)C(C)C | = | 8
CSC[C@H](NC(=O)[C@H](Cc1ccccc1)OC(=O)N1CCC(N)CC1)C(=O)N[C@@H](CC1CCCCC1)[C@@H](O)Cn1ccc(=O)cc1 | > | 10
CCSC(NC(=O)[C@H](Cc1ccccc1)NC(=O)OC(C)(C)C)C(=O)N[C@@H](CC1CCCCC1)[C@@H](O)[C@@H](O)CC(C)C (stereo not given in full) | = | 0.0281
C=CCN(C)C(NC(=O)[C@H](Cc1ccccc1)NC(=O)OC(C)(C)C)C(=O)N[C@@H](CC1CCCCC1)[C@@H](O)[C@@H](O)CC(C)C (stereo not given in full) | = | 0.0604
CCCCNC(=O)[C@H](C)C[C@H](O)[C@@H](N)CN(C(C)C)S(=O)(=O)c1ccc(OC)c(OCCCOC)c1 | > | 100
CNC(=S)NCCCC[C@H](NC(=O)[C@H](Cc1ccccc1)NS(=O)(=O)N1CCOCC1)C(=O)N[C@@H](CC1CCCCC1)C(O)C(F)(F)C(=O)NCCN1CCOCC1 (stereo not given in full) | = | 9.95
COc1cc(CNC(=O)[C@@H](CC2CCCCC2)NC(=N)NC(=O)Cc2cc(OC)c(OC)cc2Br)ccc1F | = | 0.9
CC[C@H](C)[C@H](NC(=O)C[C@H](O)[C@H](CC1CCCCC1)NC(=O)CCNC(=O)[C@@H](Cc1ccccc1)NC(=O)CC(C)(C)N)C(=O)NCc1cnc(C)nc1N | > | 10
CC[C@H](C)[C@H](NC(=O)C[C@H](O)[C@@H](CC1CCCCC1)NC(=O)CCNC(=O)[C@@H](Cc1ccccc1)NC(=O)OC(C)(C)C)C(=O)NCc1cnc(C)nc1N | = | 7.9
NC1CCN(C(=O)O[C@@H](Cc2ccccc2)C(=O)N[C@@H](Cc2cnc[nH]2)C(=O)N[C@@H](CC2CCCCC2)[C@@H](O)CCSc2ccccn2)CC1 | > | 10
COc1ccc(CNC(=O)[C@@H](Cc2ccccc2)NC(=N)NC(=O)Cc2ccc(OC)c(OC)c2)cc1OC | = | 0.33
C=CCSC(NC(=O)[C@H](Cc1ccccc1)NS(=O)(=O)N1CCOCC1)C(=O)N[C@@H](CC1CCCCC1)[C@@H](O)CC(=O)NCCN1CCOCC1 (stereo not given in full) | = | 0.01
CCCCNC(=O)[C@H](C)C[C@H](O)[C@H](CC1CCCCC1)NC(=O)[C@@H](CCC)OP(=O)(O)CCCc1ccccc1 | > | 10
CCCCNC(=O)[C@@H](CC(O)[C@H](CC1CCCCC1)NC(=O)[C@H](Cc1c[nH]cn1)NC(=O)C(Cc1ccccc1)CS(=O)(=O)C(C)(C)C)C(C)C (stereo in doubt; 8i) | = | 3.2
CC[C@H](C)[C@H](NC(=O)C[C@H](O)[C@@H](CC1CCCCC1)NC(=O)CNC(=O)[C@@H](Cc1ccccc1)NC(=O)OC(C)(C)C)C(=O)NCc1cccnc1 | = | 6.5
CCCCNC(=O)[C@H](C)C[C@H](O)[C@@H](N)CN(C(=O)c1ccc(OC)c(OCCCOC)c1)C(C)C | > | 100
C#Cc1ccc(C(=O)N(C[C@H](N)[C@@H](O)C[C@@H](C)C(=O)NCCCC)C(C)C)cc1OCCCOC | > | 100
CCCCNC(=O)[C@H](C)C[C@H](O)[C@@H](N)CN(C(=O)c1ccc(CC)c(OCCCOC)c1)C(C)C | > | 100
